Target: T1, TNFR1 (Homo sapiens, UniProt P19438)
T1 chain: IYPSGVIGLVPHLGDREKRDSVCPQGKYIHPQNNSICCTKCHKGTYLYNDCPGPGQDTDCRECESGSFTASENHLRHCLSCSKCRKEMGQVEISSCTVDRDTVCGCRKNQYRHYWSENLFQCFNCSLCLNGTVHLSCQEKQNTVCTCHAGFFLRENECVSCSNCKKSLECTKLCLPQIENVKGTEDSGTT
Assay: yeast display SC50
# apparent Kd (screen) per entry
Reply numerically in nM, unit not repeated.

Q: apparent Kd (screen) for Y13D (designed binder) SMEEEVEKAAKEDEKKKKEAIEKHLEKLKAKDKEAAERFLKELEEAAKEYAKDEAKTMSEEEAKRRAKKYKEKVLLSELSEEEQKEIKEAEEKLVRTILKYVEEAAK ?
Result: 12.5

Q: apparent Kd (screen) for L43C (designed binder) SMEEEVEKAAKEYEKKKKEAIEKHLEKLKAKDKEAAERFLKECEEAAKEYAKDEAKTMSEEEAKRRAKKYKEKVLLSELSEEEQKEIKEAEEKLVRTILKYVEEAAK ?
Result: 0.49

Q: apparent Kd (screen) for E19K (designed binder) SMEEEVEKAAKEYEKKKKKAIEKHLEKLKAKDKEAAERFLKELEEAAKEYAKDEAKTMSEEEAKRRAKKYKEKVLLSELSEEEQKEIKEAEEKLVRTILKYVEEAAK ?
Result: 0.49

Q: apparent Kd (screen) for A10C (designed binder) SMEEEVEKACKEYEKKKKEAIEKHLEKLKAKDKEAAERFLKELEEAAKEYAKDEAKTMSEEEAKRRAKKYKEKVLLSELSEEEQKEIKEAEEKLVRTILKYVEEAAK ?
Result: 1.05

Q: apparent Kd (screen) for E91L (designed binder) SMEEEVEKAAKEYEKKKKEAIEKHLEKLKAKDKEAAERFLKELEEAAKEYAKDEAKTMSEEEAKRRAKKYKEKVLLSELSEEEQKEIKEALEKLVRTILKYVEEAAK ?
Result: 13.8

Q: apparent Kd (screen) for E5S (designed binder) SMEESVEKAAKEYEKKKKEAIEKHLEKLKAKDKEAAERFLKELEEAAKEYAKDEAKTMSEEEAKRRAKKYKEKVLLSELSEEEQKEIKEAEEKLVRTILKYVEEAAK ?
Result: 0.593

Q: apparent Kd (screen) for K23P (designed binder) SMEEEVEKAAKEYEKKKKEAIEPHLEKLKAKDKEAAERFLKELEEAAKEYAKDEAKTMSEEEAKRRAKKYKEKVLLSELSEEEQKEIKEAEEKLVRTILKYVEEAAK ?
Result: 11.4

Q: apparent Kd (screen) for K27M (designed binder) SMEEEVEKAAKEYEKKKKEAIEKHLEMLKAKDKEAAERFLKELEEAAKEYAKDEAKTMSEEEAKRRAKKYKEKVLLSELSEEEQKEIKEAEEKLVRTILKYVEEAAK ?
Result: 1.05

***
Q: apparent Kd (screen) for K33Q (designed binder) SMEEEVEKAAKEYEKKKKEAIEKHLEKLKAKDQEAAERFLKELEEAAKEYAKDEAKTMSEEEAKRRAKKYKEKVLLSELSEEEQKEIKEAEEKLVRTILKYVEEAAK ?
Result: 0.869

src = paper PMC12416549
